Data credit: patent US20230104936A1

Test system: TFEB
assay-summary: TFEB nuclear translocation assay, HeLa wt cells
Assay type: cell-based
setup-conditions: Homo sapiens, HeLa, 2 h, 2 hrs compound treatment, Table 1 does not say HeLa wt or TRPML1 KO
Would you mind telling me the reported AC50 of each entry?

Below are worked cases with known answers.
compound: CC1(C)CC2(CCN(c3ccccc3NS(=O)(=O)c3ccc(S(C)(=O)=O)c(F)c3)CC2)CO1 [Compound A-660]
test-value: 8.01 to 9.99 µM
//
compound: CC1(C)CC2(CCN(c3ccccc3NS(=O)(=O)c3ccc(C4CC4)s3)CC2)CO1 [Compound A-674]
test-value: ≤ 2 µM
//
compound: Cc1ccc(S(=O)(=O)Nc2ccccc2N2[C@@H]3CC[C@H]2C[C@H](c2ccccc2F)C3)cc1 [Compound A-119]
test-value: ≤ 2 µM

Problem: Give recorded AC50 with TFEB for the following compound: O=S(=O)(Nc1cccc(N2CCC(c3ccc(Cl)cc3F)CC2)c1)c1cccc(F)c1 [Compound A-122]
Solution: ≥ 10 µM

----------
Would you mind telling me the reported AC50 of each entry?
System: TFEB
assay-summary: TFEB nuclear translocation assay, HeLa wt cells
Format: cell-based
setup-conditions: Homo sapiens, HeLa, 2 h, 2 hrs compound treatment, Table 1 does not say HeLa wt or TRPML1 KO

compound: COCC1(C)CCN(c2ccccc2NS(=O)(=O)c2ccc(C3CC3(F)F)cc2)CC1 (stereo not shown)
test-value: ≤ 2000 nM

compound: C[C@@H](c1cccc(F)c1N1CCC(C(F)(F)F)CC1)S(=O)(=O)c1ccc(S(=N)(=O)N(C)C)cc1 (single isomer, unassigned)
test-value: ≤ 2000 nM

compound: O=S(=O)(Nc1cccc(Cl)c1N1CCOCC1)c1ccc(C2CC2)cc1
test-value: 2010 to 8000 nM

Please report AC50 for every entry that follows.
1. CN1CCC(N(C)S(=O)(=O)c2ccc(NC(=O)COc3ccccc3-c3ccccc3)cc2)CC1
2. COCC1(C)CCN(c2ccccc2NS(=O)(=O)Cc2ccc(C)c(C)c2)CC1
3. CC1(C)Cc2cc(S(=O)(=O)Nc3ccccc3N3CCC4(CCOCC4)CC3)ccc2O1
4. CN1CC2(CCC(c3ccccc3NS(=O)(=O)c3ccc(S(=O)(=O)N(C)C)cc3)CC2)c2ccc(F)cc21 (stereo not shown)

Solution:
2010 to 8000 nM
≤ 2000 nM
≤ 2000 nM
2010 to 8000 nM

----------
Test system: TFEB
assay-summary: TFEB nuclear translocation assay, HeLa wt cells
Format: cell-based
setup-conditions: Homo sapiens, HeLa, 2 h, 2 hrs compound treatment, Table 1 does not say HeLa wt or TRPML1 KO
Would you mind telling me the reported AC50 of each entry?

Below are worked cases with known answers.
compound: CC1(C)CC2(CCN(c3ccccc3NS(=O)(=O)c3cccc(C4CC4(F)F)c3)CC2)CO1 (stereo not shown)
test-value: ≤ 2 µM
//
compound: C[C@@H]1CN(c2nn(S(=O)(=O)c3ccc(S(=O)(=O)N(C)C)cc3)c3ccccc23)C[C@H](C)C1F (stereo partly shown)
test-value: ≤ 2 µM
//
compound: COCC1(C)CCN(c2ccccc2NS(=O)(=O)c2ccc(CC(C)(C)C)cc2)CC1
test-value: 2.01 to 8 µM

Problem: Give recorded AC50 with TFEB for the following compound: "CC(C)(C)C(=O)N1CCN(c2ccccc2NS(=O)(=O)c2ccc(S(F)(F)(F)(F)F)cc2)CC1"
Solution: 8.01 to 9.99 µM
